- procedure.text: Cytotoxicity against human HCT116 cells assessed as growth inhibition at 3 ug/ml after 48 hrs by MTT assay relative to control
- Assay type: cell-based, HCT-116
- experimental.context: read-out: GI
measurement.label: inhibition at 48 h, 3 ug/ml (%)

>>> data_value("CN1C/C(=C\\c2cc3cc(F)ccc3nc2Cl)C(=O)/C(=C/c2cc3cc(F)ccc3nc2Cl)C1")
-0.4
>>> data_value("Cc1cccc2cc(/C=C3\\CNC/C(=C\\c4cc5cccc(C)c5nc4Cl)C3=O)c(Cl)nc12")
3.2
>>> data_value("CN1C/C(=C\\c2cc3ccccc3nc2Cl)C(=O)/C(=C/c2cc3ccccc3nc2Cl)C1")
-0.3
>>> data_value("COc1ccc2cc(/C=C3\\CNC/C(=C\\c4cc5ccc(OC)cc5nc4Cl)C3=O)c(Cl)nc2c1")
26.9
>>> data_value("CN1C/C(=C\\c2cc3cc(Cl)ccc3nc2Cl)C(=O)/C(=C/c2cc3cc(Cl)ccc3nc2Cl)C1")
2
>>> data_value("COc1ccc2nc(Cl)c(/C=C3\\CNC/C(=C\\c4cc5cc(OC)ccc5nc4Cl)C3=O)cc2c1")
0
>>> data_value("Cc1ccc2nc(Cl)c(/C=C3\\CNC/C(=C\\c4cc5cc(C)ccc5nc4Cl)C3=O)cc2c1")
5.5
>>> data_value("O=C1/C(=C/c2cc3cc(F)ccc3nc2Cl)CNC/C1=C\\c1cc2cc(F)ccc2nc1Cl")
35
>>> data_value("O=C1/C(=C/c2cc3cc(Cl)ccc3nc2Cl)CNC/C1=C\\c1cc2cc(Cl)ccc2nc1Cl")
-18.3

----------
- procedure.text: Cytotoxicity against human MCF7 cells assessed as growth inhibition at 10 ug/ml after 48 hrs by MTT assay relative to control
- Format: cell-based
- experimental.context: read-out: GI
measurement.label: inhibition at 48 h, 10 ug/ml

>>> data_value("Cc1ccc2nc(Cl)c(/C=C3\\CN(C)C/C(=C\\c4cc5cc(C)ccc5nc4Cl)C3=O)cc2c1")
"18.7%"
>>> data_value("CN1C/C(=C\\c2cc3cc(Cl)ccc3nc2Cl)C(=O)/C(=C/c2cc3cc(Cl)ccc3nc2Cl)C1")
"42.8%"
>>> data_value("CN1C/C(=C\\c2cc3cc(F)ccc3nc2Cl)C(=O)/C(=C/c2cc3cc(F)ccc3nc2Cl)C1")
"-0.6%"

----------
- procedure.text: Selectivity index, ratio of GI90 for human A549 cells to MIC90 for dormant state of dormant state of Mycobacterium bovis BCG
- Type: toxicity
- experimental.context: read-out: Selectivity Index
Reported selectivity ratio is given for each of the following molecules.
measurement.label: selectivity ratio

>>> data_value("COc1ccc2cc(/C=C3\\CNC/C(=C\\c4cc5ccc(OC)cc5nc4Cl)C3=O)c(Cl)nc2c1")
"> 37"
>>> data_value("COc1ccc2cc(/C=C3\\CN(C)C/C(=C\\c4cc5ccc(OC)cc5nc4Cl)C3=O)c(Cl)nc2c1")
"> 10"
>>> data_value("CN1C/C(=C\\c2cc3ccccc3nc2Cl)C(=O)/C(=C/c2cc3ccccc3nc2Cl)C1")
"> 13"
>>> data_value("CO[C@H]1/C=C/O[C@@]2(C)Oc3c(C)c(O)c4c(O)c(c(/C=N/N5CCN(C)CC5)c(O)c4c3C2=O)NC(=O)/C(C)=C\\C=C\\[C@H](C)[C@H](O)[C@@H](C)[C@@H](O)[C@@H](C)[C@H](OC(C)=O)[C@@H]1C")
"> 123"
>>> data_value("O=C1/C(=C/c2cc3cc(F)ccc3nc2Cl)CNC/C1=C\\c1cc2cc(F)ccc2nc1Cl")
"> 10"
